- System: Candida albicans
- assay_details: Percent inhibition against efflux-deficient strain of Candida albicans at 15.5 uM
- Type: functional
As shown below, each of these compounds has a reported inhibition at 15.5 µM value.
Response body: numeric value in %, unit text excluded.

Below: 5 compounds and their reported inhibition at 15.5 µM.
CCCOC(=O)N1C[C@H](O)[C@@H](OC(=O)NCc2ccccc2-c2ccccc2)[C@H]1Cc1ccc(OC)cc1; 96
CCOC(=O)N1C[C@H](O)[C@@H](OC(=O)NCc2ccccc2-c2ccccc2)[C@H]1Cc1ccc(OC)cc1; 83
COc1ccc(C[C@@H]2[C@H](OC(=O)NCc3ccc(F)cc3)[C@@H](O)CN2C(=O)c2cc(C(F)(F)F)cc(C(F)(F)F)c2)cc1; 87
COc1ccc(C[C@@H]2[C@H](OC(=O)NCc3ccccc3-c3ccccc3)[C@@H](O)CN2C(=O)OCC(C)C)cc1; 82
COc1ccc(C[C@@H]2[C@H](OC(=O)NCc3ccccc3)[C@@H](O)CN2C(=O)c2cc(C(F)(F)F)cc(C(F)(F)F)c2)cc1; 87

Could you now look at the following compound, please?
inhibition at 15.5 µM recorded for this compound, "COc1ccc(C[C@@H]2[C@H](OC(=O)NCc3ccccc3F)[C@@H](O)CN2C(=O)c2cc(C(F)(F)F)cc(C(F)(F)F)c2)cc1" , is 87

Ref: ChEMBL document CHEMBL1140359
